cAMP EC50 listing for selected binders.
target: human glucagon-like peptide-1 (GLP-1) receptor (human, UniProt P43220 24-463); assay: cell-based or functional assay
*1 amine or outer side, *2 acyl side, *3 side chain or, on linkers, in order; H or OH if unused. Where no end group is shown, it is not given here. Side-chain parts run from the residue outwards. [ ]: non-standard residue; d: D form. The star is where a group is joined. αMePhe(2-F) = C[C@](N)(Cc1ccccc1F)C(=O)O; C14 diacid = O=C(O)CCCCCCCCCCCCC(=O)*; εLys = N[C@@H](CCCCN[*:1])C(=O)[*:2]; αMeY = C[C@](N)(Cc1ccc(O)cc1)C(=O)O; αMeL = CC(C)C[C@](C)(N)C(=O)O; Orn = NCCC[C@H](N)C(=O)O; AEEA = NCCOCCOCC(=O)O; Aib = CC(C)(N)C(=O)O
Kindly provide the numeric value in nM only, without the unit symbol.

| binder | unit of measurement | reading |
| --- | --- | --- |
| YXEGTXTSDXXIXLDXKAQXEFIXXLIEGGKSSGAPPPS (Aib2, αMeF(2F)6, 4Pal10, Tle11, αMeL13, Orn16, K17(Z), Aib20, D-Glu24, αMeY25, K31(Z), C-terminal NH2; Z = AEEA2-(γ-Glu)-CO-(CH2)12-CO2H) [Example 202] | nM | 0.944 |

Q: I would be grateful if you could share the reported cAMP EC50 for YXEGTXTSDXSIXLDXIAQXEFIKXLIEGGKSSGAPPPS (Aib2, αMeF(2F)6, 4Pal10, αMeL13, Orn16, Aib20, K24(Z), αMeY25, K31(Z), C-terminal NH2; Z = (εK)-(εK)-(γ-Glu)-CO-(CH2)12-CO2H) [Example 198] .
A: 0.362

Q: I would be grateful if you could share the reported cAMP EC50 for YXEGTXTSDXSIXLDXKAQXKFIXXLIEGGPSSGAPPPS (Aib2, αMeF(2F)6, 2Nal10, αMeL13, Orn16, K17(Z), Aib20, K21(Z), D-Glu24, αMeY25, C-terminal NH2; Z = AEEA2-CO-(CH2)12-CO2H) [Example 255] .
A: 0.357

Q: I would be grateful if you could share the reported cAMP EC50 for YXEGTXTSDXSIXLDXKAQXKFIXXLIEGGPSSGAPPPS (Aib2, αMeF(2F)6, OMeY10, αMeL13, Orn16, K17(Z), Aib20, K21(Z), D-Glu24, αMeY25, C-terminal NH2; Z = AEEA2-(γ-Glu)-CO-(CH2)12-CO2H) [Example 259] .
A: 0.362

Q: I would be grateful if you could share the reported cAMP EC50 for Y[Aib]EGT[αMePhe(2-F)]TSDV[Aib]I[αMeL]LD[Orn]K([AEEA-AEEA-εLys-C14 diacid])AQ[Aib]EFIK([AEEA-AEEA-εLys-C14 diacid])[αMeY]LIEGGPSSGAPPPS-NH2 [Example 166] .
A: 0.192

Q: I would be grateful if you could share the reported cAMP EC50 for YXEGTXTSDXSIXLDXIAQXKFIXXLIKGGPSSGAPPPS (Aib2, αMeF(2F)6, 4Pal10, αMeL13, Orn16, Aib20, K21(Z), D-Glu24, αMeY25, K28(Z), C-terminal NH2; Z = AEEA2-(γ-Glu)-(11-(4-carboxyphenoxy)undecanoyl)) [Example 287] .
A: 0.563

Q: I would be grateful if you could share the reported cAMP EC50 for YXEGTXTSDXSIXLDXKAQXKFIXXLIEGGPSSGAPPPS (Aib2, αMeF(2F)6, 2Nal10, αMeL13, Orn16, K17(Z), Aib20, K21(Z), D-Glu24, αMeY25, C-terminal NH2; Z = AEEA2-(γ-Glu)-(10-(4-carboxyphenoxy)decanoyl)) [Example 281] .
A: 0.252

Q: I would be grateful if you could share the reported cAMP EC50 for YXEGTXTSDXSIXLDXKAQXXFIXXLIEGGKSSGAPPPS (Aib2, αMeF(2F)6, 4Pal10, αMeL13, Orn16, K17(Z), Aib20, 4Pal21, D-Glu24, αMeY25, K31(Z), C-terminal NH2; Z = AEEA2-(γ-Glu)-CO-(CH2)12-CO2H) [Example 157] .
A: 0.94

Q: I would be grateful if you could share the reported cAMP EC50 for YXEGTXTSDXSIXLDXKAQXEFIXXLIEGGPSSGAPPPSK (Aib2, αMeF(2F)6, 4Pal10, αMeL13, Orn16, K17(Z), Aib20, D-Glu24, αMeY25, K40(Z), C-terminal NH2; Z = AEEA2-CO-(CH2)12-CO2H) [Example 221] .
A: 1.83
